Sourced from patent US20070099851A1

Reported Ki values for the following compounds.
Biological target: Fructose-1,6-bisphosphatase (Homo sapiens)
Sequence (P09467 2-338 limits assumed): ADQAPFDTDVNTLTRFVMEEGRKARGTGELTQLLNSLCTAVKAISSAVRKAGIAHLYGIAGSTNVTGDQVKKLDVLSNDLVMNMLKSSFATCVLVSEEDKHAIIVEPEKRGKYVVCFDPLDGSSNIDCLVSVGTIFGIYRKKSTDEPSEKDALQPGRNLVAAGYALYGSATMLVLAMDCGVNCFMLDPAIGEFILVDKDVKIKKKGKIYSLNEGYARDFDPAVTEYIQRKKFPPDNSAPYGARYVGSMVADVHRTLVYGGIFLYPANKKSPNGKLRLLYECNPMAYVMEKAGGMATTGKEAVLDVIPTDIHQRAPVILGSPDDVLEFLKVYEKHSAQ
Assay: Inhibition of fructose-1,6-bisphosphatase
Assay type: biochemical
Conditions: At 20 μM Fru-1,6-bisphosphate

Exercise: Quick one: Ki for O=P(O)(O)CC1OC(COP(=O)(O)O)C(O)C1O (centres unmarked) [Compound 2.1, 5-phosphoribosyl-1-methylenephosphonate] ?
Key: 87 µM

Exercise: Quick one: Ki for O=P(O)(O)OC[C@H]1OC(OP(=O)(O)O)[C@H](O)[C@@H]1O (some centres unmarked) [ribose-1,5-bisphosphate, reference compound] ?
Key: 87 µM
